# tgt: BRCA1 DBD1 (human, UniProt P38398 330-554)
# Sequence (P38398 330-554): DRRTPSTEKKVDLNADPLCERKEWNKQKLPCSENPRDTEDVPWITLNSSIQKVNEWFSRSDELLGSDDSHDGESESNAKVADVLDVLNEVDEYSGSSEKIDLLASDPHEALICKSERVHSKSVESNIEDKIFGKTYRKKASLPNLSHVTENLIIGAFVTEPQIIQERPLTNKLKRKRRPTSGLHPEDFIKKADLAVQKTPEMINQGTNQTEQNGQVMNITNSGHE
# method.notes: BLI; 150 mM KCl; BLI (BLItz, SAX sensors, immobilized biotin-DNA) in Buffer H: 20 mM HEPES pH 7.5, 150 mM KCl, 5 mM TCEP, 5% glycerol, 25 C; steady-state 1:1 fit; errors 95% CI, n=3
# conditions.used: protein: recombinant; tags: Ni-NTA purified (details not given); label: 5' biotin
quantity: Kd (nM)
// units = nM; emit number, no label

So, Bioss60R (ssDNA) (ssDNA) DNA: CCATGGCTCCTGAGCTAGCTGCAGTAGCCTAAAGGATGAAACTAGGATCTTATGCTCCAT ? Its Kd was 68.4
